Recorded values, source patent US20200392198A1.

Biological target: T1, human GLP-2 receptor (human, UniProt O95838 1-553)
T1 sequence (looked up): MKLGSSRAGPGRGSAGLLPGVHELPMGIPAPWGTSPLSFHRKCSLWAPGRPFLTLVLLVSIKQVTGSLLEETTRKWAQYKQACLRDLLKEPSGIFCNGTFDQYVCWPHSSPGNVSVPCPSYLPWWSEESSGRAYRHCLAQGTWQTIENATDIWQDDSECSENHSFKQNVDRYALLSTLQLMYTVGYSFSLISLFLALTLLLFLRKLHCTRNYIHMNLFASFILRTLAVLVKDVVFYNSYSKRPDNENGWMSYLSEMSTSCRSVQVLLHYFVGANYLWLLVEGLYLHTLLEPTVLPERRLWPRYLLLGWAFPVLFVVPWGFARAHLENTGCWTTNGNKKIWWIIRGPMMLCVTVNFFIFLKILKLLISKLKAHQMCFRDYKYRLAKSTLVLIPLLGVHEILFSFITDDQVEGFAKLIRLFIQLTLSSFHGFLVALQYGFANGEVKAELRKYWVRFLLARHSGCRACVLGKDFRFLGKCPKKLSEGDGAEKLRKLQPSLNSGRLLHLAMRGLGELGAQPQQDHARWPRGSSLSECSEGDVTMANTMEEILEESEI
Assay: cell-based or functional assay
Ends that are not written are not given here. * marks the point of attachment. Palmitoyl = CCCCCCCCCCCCCCCC(=O)*; Lauroyl = CCCCCCCCCCCC(=O)*
Recorded Emax (10 µM), % of native GLP-2 for the following binders

Here are 4 binders together with their reported answers.
>  <binder>
HADGTFISDYSTILDNLAARDFINWLIQTK(Palmitoyl)ITK [GIP-GLP-2 co-agonist 31]

>  <endpoint>
Emax (10 µM), % of native GLP-2

>  <recorded.result>
91%

$$$$
>  <binder>
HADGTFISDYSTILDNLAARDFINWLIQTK(Lauroyl)ITK [GIP-GLP-2 co-agonist 30]

>  <endpoint>
Emax (10 µM), % of native GLP-2

>  <recorded.result>
73%

$$$$
>  <binder>
HADGTFSSDYSTILDNLAAKDFINWLIQTKITD [GIP-GLP-2 co-agonist 20]

>  <endpoint>
Emax (10 µM), % of native GLP-2

>  <recorded.result>
80%

$$$$
>  <binder>
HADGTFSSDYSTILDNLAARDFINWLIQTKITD (not fully specified (residue 1, N-terminus); also: C16 acyl group on His 1 (attachment site not given here)) [GIP-GLP-2 co-agonist 22]

>  <endpoint>
Emax (10 µM), % of native GLP-2

>  <recorded.result>
72%

$$$$

Kindly consider the entry below.
INPUT: Using the record for HADGTFISDYSTILDKLAARDFINWLIQTKITK [GIP-GLP-2 co-agonist 26] , report its Emax (10 µM), % of native GLP-2.
OUTPUT: 100%
